I'd be grateful if you could share measured log2fc for these entries.
system: ACHN cell line; assay: drug screen of the SelleckChem kinase inhibitor library with and without 5 uM SU-329, Cell-Titer Glo after 5 days; assay type: cell-based; conditions: kinase inhibitor at 200 nM with and without 5 uM SU329; ACHN cell line; 5 days; Cell-Titer Glo
Answers are plain numbers.

Items follow; give log2fc for each.
1. CN(C)Cc1cccc(N/C(=C2\C(=O)Nc3cc(C(N)=O)ccc32)c2ccccc2)c1
2. Cl.Cl.O=S(=O)(NCCNC/C=C/c1ccc(Br)cc1)c1cccc2cnccc12 [H 89 2HCl]
3. Cc1ccc(Nc2nccc(N(C)c3ccc4c(C)n(C)nc4c3)n2)cc1S(N)(=O)=O
4. CN1CCN(Cc2ccc(-c3cnc4[nH]cc(-c5ccc6[nH]ccc6c5)c4c3)cc2)CC1
5. COc1ccc(S(=O)(=O)N(CCO)c2ccccc2CN(C)C/C=C/c2ccc(Cl)cc2)cc1.O=P(O)(O)O [KN-93 Phosphate]
6. COc1c(C)c(C(=O)c2ccc(N)c(C(=O)[O-])c2)n2ccccc12.[Na+] [SSR128129E]

RESULT:
1: 0.2216; 2: −0.01404; 3: −0.1316; 4: 0.3515; 5: 0.02491; 6: 0.3473

Below are some molecules; for each one, tell me its log2fc.
1. O=C1Nc2ccccc2/C1=C1/Nc2ccccc2C1=O
2. Cn1ncc(Cl)c1-c1cc(C(=O)N[C@H](CN)Cc2ccc(F)c(F)c2)oc1Cl
3. Cc1cnc(Nc2ccc(N3CCN(C)CC3)cc2)nc1Nc1cccc(S(=O)(=O)NC(C)(C)C)c1
4. CC(C)n1nc(-c2ccc3oc(N)nc3c2)c2c(N)ncnc21

RESULT:
["−1.247", "−1.387", "−0.1573", "−0.2018"]

Count: 3. Required value per item: log2fc.
1. COc1ncc(-c2ccc3nccc(-c4ccnnc4)c3c2)cc1NS(=O)(=O)c1ccc(F)cc1F
2. O=C1Nc2cc(Br)ccc2/C1=C1/Nc2ccccc2/C1=N\O
3. O=C(c1ccc(Nc2nccc(-c3cc4ccccc4s3)n2)cc1)N1CCC(N2CCCC2)CC1

RESULT:
1: 0.5342; 2: −0.1795; 3: −0.1183

====

test system: ACHN cell line; experiment: drug screen of the SelleckChem kinase inhibitor library with and without 5 uM SU-329, Cell-Titer Glo after 5 days; format: cell-based; details: kinase inhibitor at 200 nM with and without 5 uM SU329; ACHN cell line; 5 days; Cell-Titer Glo
Please go through the items and note down their log2fc.
Answers are plain numbers.

Observe how each entry below is paired with its result.
| Compound | log2fc |
| --- | --- |
| CS(=O)(=O)N1CCN(Cc2cc3nc(-c4cccc5[nH]ncc45)nc(N4CCOCC4)c3s2)CC1 | −1.17 |
| C=CC(=O)Nc1cccc(Nc2nc(Nc3ccc(OCCOC)cc3)ncc2F)c1 | −0.2142 |
| O=c1cc(-c2cccc3c2Sc2ccccc2S3)oc(N2CCOCC2)c1 | 0.3053 |
| CS(=O)(=O)CCNCc1ccc(-c2ccc3ncnc(Nc4ccc(OCc5cccc(F)c5)c(Cl)c4)c3c2)o1 [Lapatinib] | 0.9499 |

The following compounds each have a reported value; give each one's log2fc.
1. Oc1ccc(Nc2nc(-c3ccc(Cl)cc3)cs2)cc1
2. O=c1c(O)c(-c2ccc(O)c(O)c2)oc2cc(O)cc(O)c12
3. Cc1ccc(NC(=O)c2cccc(C(C)(C)C#N)c2)cc1Nc1ccc2ncn(C)c(=O)c2c1
4. O=C1Nc2ccc(I)cc2/C1=C/c1cc(Br)c(O)c(Br)c1

RESULT:
1. 0.06564
2. −0.449
3. 0.4319
4. 0.4071

Kindly give each listed record's log2fc.
1. C[C@@]1(C(=O)Nc2ccc(F)nc2)CCCN1c1nc(Nc2cc(C3CC3)n[nH]2)c2cccn2n1
2. Cc1cc(C)c(/C=C2\C(=O)Nc3ccccc32)[nH]1 [Semaxanib (SU5416)]
3. Oc1cccc(-c2nc(N3CCOCC3)c3oc4ncccc4c3n2)c1
4. COc1cc2nccc(Oc3ccc(NC(=O)C4(C(=O)Nc5ccc(F)cc5)CC4)cc3)c2cc1OC.O=C(O)C[C@H](O)C(=O)O [Cabozantinib malate (XL184)]
5. C[C@@H]1CN(CC(=O)Nc2ccc3c(c2)Cc2cccc(-c4cc(=O)cc(N5CCOCC5)o4)c2S3)C[C@H](C)O1
6. CC(C)(C)c1cc(C=C(C#N)C#N)cc(C(C)(C)C)c1O
7. CC(O)C(=O)O.CC(O)C(=O)O.CN1CCN(c2ccc3nc(-c4c(N)c5c(F)cccc5[nH]c4=O)[nH]c3c2)CC1
8. Cc1cc(Nc2ncc(Cl)c(Nc3ccccc3S(=O)(=O)C(C)C)n2)c(OC(C)C)cc1C1CCNCC1

RESULT:
−1.139
−0.8277
−1.021
0.5713
0.886
−0.5358
−0.3598
0.2988
